system: K4 kissing-loop RNA reporter; experiment: apparent KD of K4 kissing-loop reporter; higher = weaker reporter binding; conditions: Eterna round: R107; input ligand: none
ASSAY_ENDPOINT: apparent KD of K4 kissing-loop reporter (nM)
Give just the numeric value; nM need not be written.

UGGGAUUUGUCAGGAUAUGAGUGCAGUGAUGUUGCACUUAAUAAAGUACAUAGGCCCUGCUGGCACUCAGAAGGGACGGUGAUGC [Lalasobeer] | 103
GGGAGUAGUGCGGCCGCCACUGAGAAAGAAGAAGAAUAUAGUGAUGUUAUGUAGGAAAGGAAGAACAGGACCGGGCAUUAGAUUU [SSTRyptB.G] | 477
AAUAAACAGUCGGCCGCCACUUCAAUAGACUUAUUAUUGAAUGGUGUAGUUCUUCAGUGAUGUUGAAGGACCGGGACUUUCGCGC [Isesator] | 145

Looking for the measured apparent KD of K4 kissing-loop reporter of GGAUUGCGUUCGGCCGCCACUAGACUACAUUCCACGCCCGACCCGUUUUUAAGUGAUGUUUAAACUAGGACCGGGAACCGAUUUC [theeternabot_exclusion_KL_Trp_B_33] , can you help? 395

Another: CAAUGAGUAUAAGAUGAUAUCAUAACAGAAGGAGCGAGUGAUAACUCAGGUAGGUCGCUGAAUUUAUCGAGUGAUGUUCGAUAAA [whbob_SS_Arginine_A_sa116] 187

Also AGGGAUGUUAAAGGAUAUAGAAAGUGAUGUUAGAAAGUGAGUGAUGUUGAUGUUAGUGAUGUUAUGUUAGAAGGUUAACAAAACG [a] ? 211

* * *

tested on: K4 kissing-loop RNA reporter; experiment: apparent KD of K4 kissing-loop reporter; higher = weaker reporter binding; conditions: Eterna round: R107; input ligand: FMN 200 uM;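 further: bound reporter read as fluorescence of individual clusters on recovered sequencing chips by microscopy, with normalized cluster intensities fitted with a binding model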
Output class 1 for apparent KD of K4 kissing-loop reporter not less than 400 nM; output class 0 otherwise.

Record excerpt, results attached:
CCUAUCUCAUACGAUACCAGUCAAUUAAAUUUUAUAAAUGCCAUCACCGAGUGAUGUUCGGACCCUUGGCAGCGUAUGGGAUAGG [Ex Theophylline B K4 2] | class 0
GCGCGGGAGUGAUGUUCCAAGUGGUGUUAGCGAGGACCGGUACGGCCGCCACUCGUUACGGCCGGGCCGUAGGAUACACUGGCGC [Same State - Tryptophan A (Freestyle 17)] | class 0
ACCUGUAGUGAUGUUACUGGUGGUUAGGAAGGAGCGCCCGCGUGGGCAGGUAGGUCGCCUAAGCUAUGUGGGAAACCGCAUAUUG [#14 K4 Arginine A Same State] | class 0
GAAUUAUGUAGAAGGAGCGUUAGAAGGUAUAGGUGCGAGUGAUGUUUGGACUUGUUAAUUUGACAGGUAGGUCGCUACAGAAGGA [KL-SSArg B19 #analogue] | class 1
UAAACCAAAUUACGUCACCUUGUCCAAUCUAAGGAUAUGUGAUUCCACAGAAGGUAGCCACGGGAGUGAUGUUCGCGUUAAGGCG [theeternabot_exclusion_KL_FMN_A_31] | class 1

Here's the next entry for you.
Decide: apparent KD of K4 kissing-loop reporter of ACGACGCAUAGUGAUACCAGCUAUAUAUGAGUGAUGUUCUACCUAAAAUGGUAAUAAUUUAGCCCUUGGCAGCACUAUGCGUCAG [KL-SSTheoB4] >= 400 nM? class 0

* * *

test system: MS2 coat protein; assay: apparent KD of MS2 coat protein; higher = weaker reporter binding; conditions: Eterna round: R107; input ligand: theophylline 20 uM
ASSAY_ENDPOINT: apparent KD of MS2 coat protein (µM)
The answer is to be given in µM; state only the numeric part.

Consider the worked cases shown below.
GGACCAGGGAGCGAUACCAGCUUGAGUGUGCUGGCCAGGCACAUGAGGAUCACCCAUGUAAGCCCUUGGCAGCGCUCCCUGGUCC [#1 Exclusion - Theophylline B Attempt #27 (HarryS)] | 0.0153
GGGUGUGAUCCGGAUACCAGCGAACAUGAGGAUCACCCAUGUGACCUGAGAUCGGCUCUACGCCCUUGGCAGCCGCGAUCGCAGG [Same State Theophylline B GF12] | 0.105
AACACAUGAGGAUCACCCAUGUCCAUGUACCGAGGACCGGUACGGCCGCCACUCGACAUGAGGAUCACCCAUGUUCCAUGUUGUC [Same State Tryptophan A 3] | 0.131

Could you share which apparent KD of MS2 coat protein value was measured for AAGCCCAGGACGGCCGCCACUGUAAAAUGGUGGUUCGCCUGUAAGAACAUGAGGAUCACCCAUGUCAGGACCGGGUCCACGAGUU [theeternabot_exclusion_MS2_Trp_B_46] ? 0.0238

* * *

system: MS2 coat protein; experiment: apparent KD of MS2 coat protein, switch OFF state (with FMN for OFF switches, without FMN for ON switches); designed switch direction (-1 OFF switch, 1 ON switch): -1; higher = weaker reporter binding; conditions: FMN input: 0 or 200 uM; Eterna round: R93 (includes R88 designs)
Entry flag: Condition met if apparent KD of MS2 coat protein reaches 0.04 µM; Condition not met if it does not.

Worked examples follow.
AAAAAACAUGAGGAUCACCCAUGUGAGGAUAUCUGAAAAAAAAAAAAAAAAAAGAAAAAGAGAAGGCGCAAAGA [Ex 1 #2] | Condition not met
CUCUUGUGAGGAUAUGAAAGAAAAGAAGAGAAAGAAAAGAAUCAGAAGGCACAUGAGGAUCACCCAUGUAAGAA [EteRNA is fun!] | Condition met
AAAACACAUGAGGAUCACCCAUGUGAGGAUAUCGUGCAGUAGACGAAAGUCUACUGCACGAGAAGGCACAAGGA [Tweaking Brourd] | Condition met
AAAAAACAUGAGGAUCACCCAUGUGAGGAUAUGCGAAAAUAAAAUAAAAUAAAUAAAAGCAGAAGGCACAAAAA [Mat - Exclusion 1 - Eli mod - D59] | Condition met

# evaluate next
Decide: is the reported value of apparent KD of MS2 coat protein for CUCAUGUGAGGAUAUCAGUAGUAAAAAAAAAAAAUUACUACUGAGAAGGCACAUGAGGAUCACCCAUGUGCCUU [EX4 325: Super Stable 25] equal to or greater than 0.04 µM? Condition not met

* * *

tested on: MS2 coat protein; test: apparent KD of MS2 coat protein; designed switch direction (-1 OFF switch, 1 ON switch): -1; higher = weaker reporter binding; settings: Eterna round: R95; input ligand: FMN 200 uM
Would you mind sorting the entries by apparent KD of MS2 coat protein according to these classes? I (below 20 nM), II (20 nM to below 40 nM), III (40 nM or more)

Study these solved cases before continuing.
UCCGAACAUGAGGAUCACCCAUGUGAGGAUAUCCCGAGAUUAAAUGCCGCAAGAAGGCGGAGAAGGCGCAUGGG [Biditiinen] (puzzle: Exclusion 1) | II
AAAGAACAUGAGGAUCACCCAUGUGAGGAUAUGCGAAAACCGCUAACAAACCAGACGGGCAGAAGGCAUAUGGU [Leistequ] (puzzle: Exclusion 1) | III
GGUUGGCGAGGAUAUACAUGAGGAUCACCCAUGUGAGAGAAGAAAGUGAGAACGAAAAGUAGAAGGCGCUGACG [salish99_ex3_r3_060] (puzzle: Exclusion 3) | I
UAGUGGGUACGAAGGAGUUGUAUGAGCGGAGGCUCAGUGACAUGAGGAUCACCCAUGUAGCUUUUUGCUCGUCUUAA [JR_SV3TOV2_Sub038] (puzzle: Sensor v3, turn-off variant 2) | II
AGUAACUAUCACGAAAGUGAUAGUUACAGCAAGUGAUAAACAUGAGGAUCACCCAUGUCCUCAUUUGCUCGUCUUAU [Sensor 3 - 12] (puzzle: Sensor v3, turn-off variant 2) | I

For the record GCCGAUUAAGUGAGGAUAUACCUAUGGAAACAUAGGUAGAAGGCACAUGAGGAUCACCCAUGUUCCUAUACGGC [Fiskers BMX 4 - 5] (puzzle: Brourd's mod of Exclusion 4) , report the class its apparent KD of MS2 coat protein corresponds to. II

Again, but for AAUGCGAGUGUUAGGAUAUACAAGGAUCCAUAUUUGUAGAAGGAACAUGAGGAUCACCCAUGUAAGGGAAUAAA [Enususxebe] (puzzle: Brourd's mod of Exclusion 4) III

Similarly, AAGAAACGAGGAUAUACAAUUGAGUGAGAGAGGGAAGUGUGACAUGAGGAUCACCCAUGUAGAAGGCGUAAGAG [JR_Exclu2_Sub085] (puzzle: Exclusion 2) ? III

Another sequence to check: AUAACAAGCUUUUUGUUCGUAGAACAUGACGCUCGAGUCACAUGAGGAUCACCCAUGUCAUCCAGAUUGAUAGUUGA [JR_SV3TOV2_Sub059] (puzzle: Sensor v3, turn-off variant 2) II

* * *

# reported apparent KD of MS2 coat protein; entries follow
system: MS2 coat protein; experiment: apparent KD of MS2 coat protein; higher = weaker reporter binding; conditions: Eterna round: R107; input ligand: arginine 13.2 mM
Give the number; nM is assumed, so skip it.

The following sequences have reported results that may help.
GUCCGCAGCCGAAGGAGCGCUAGAAGGUGACAUGAGGAUCACCCAUGUGUGUGAUGUGGCUAGCAGGUAGGUCGCGGAGCGGAUU [Exclusion - Arginine B (Freestyle 18)] | 85.2
AUAAUAAUACAUGAGGAUCACCCAUGUAUGCGAGGACCGGUACGGCCGCCACUCGACCUCAUGCAUACAUGAGGAUCACCCAUGU [Same State Tryptophan A 4] | 18.4

// query apparent KD of MS2 coat protein value for entry ACAUGAGGAUCACCCAUGUGUCCUCGAAAACGAGGACCGGUACGGCCGCCACUCGAAAUAAGCGACAAGCGAAAAGCUUGUCGCA [Mat - Exclusion - Trytophan A - D22] 57.6

What do we get for UCACUCCUGAUGGAUACCAGUUACUAACGCAACAUGAGGAUCACCCAUGUGAACACUCAGAACCCUUGGCAGCCAGGAGAACGAA [theeternabot_sameState_MS2_Theo_B_30] ? 42.8

Request: CGGGAACGAUAUGAUACCAGCCUGCGAAAGAAUGCUUAGUACAUGAGGAUCACCCAUGUAGGCCCUUGGCAGCAUCGACUCAAGU [theeternabot_exclusion_MS2_Theo_B_4] 13.1

Lookup GAGACAUCGGGAAGGAGCGCAUCCAAACCACACAUGAGGAUCACCCAUGUAUAAAUAUGCAUGCAGGUAGGUCGCCCGGUAUCCC [Tiisqure] 26.5
